Give Cytotox EC50 (nM) Donor 104 for every item shown.
target_of_assay: human CD33 on CD33-expressing THP-1 cells (human, UniProt P20138 18-364)
Sequence (P20138 18-364): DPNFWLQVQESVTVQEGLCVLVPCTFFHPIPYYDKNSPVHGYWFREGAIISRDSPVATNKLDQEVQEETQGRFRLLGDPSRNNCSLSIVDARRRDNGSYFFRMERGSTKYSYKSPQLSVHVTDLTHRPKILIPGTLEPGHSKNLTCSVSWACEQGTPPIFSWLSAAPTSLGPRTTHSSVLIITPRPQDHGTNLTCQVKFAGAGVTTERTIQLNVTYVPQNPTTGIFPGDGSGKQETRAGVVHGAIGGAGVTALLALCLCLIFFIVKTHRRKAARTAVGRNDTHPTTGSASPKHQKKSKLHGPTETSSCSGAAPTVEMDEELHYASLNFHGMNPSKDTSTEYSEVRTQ
test_protocol: cell-based or functional assay

What Cytotox EC50 (nM) Donor 104 value was documented for this binder, scFv-VHH bispecific molecule JL4 x 6H4 (scFv (VL-L-VH)-L-VHH with C-tag) (bispecific antibody) DVVMTQSPLSLPVTLGQPASISCRSSQSLVYSDGNTYLNWFQQRPGQSPRRLIYKVSTRDSGVPDRFSGSGSGTDFTLKISRVEAEDVAVYYCLQGTHWPWTFGQGTKVEIKGGSEGKSSGSGSESKSTGGSQVQLVESGGGLVQPGGSLRLSCAASGITFSNYWMSWVRQAPGKGLEWVASIKRDGSDKYYVDSVKGRFTISRDNAKNSLSLQMHSLRAEDTAVYYCAKGEFDYWGQGTLVTVSSGGGGSEVQLVESGGGLVQAGGSLRLSCAASGRPFSNYGMGWFRQAPGKKREFVAGISWSGGSTDYADSVKGRFTISRDNAKNTVYLQMNSLKPEDTAVYYCAAVFSGAETAYYPSDDYDYWGQGTQVTVSSAAAEPEA ?
~0.0004 nM

What Cytotox EC50 (nM) Donor 104 value was documented for this binder, scFv-VHH bispecific molecule JL5 x 6H4 (scFv (VL-L-VH)-L-VHH with C-tag) (bispecific antibody) QSVLTQPPSASGTPGQRVTISCSGSSSNIGSNIVNWYQQFPGTAPKLLIYSNNQRPSGVPDRVSGSKSGTSASLAISGLQSEDEADYYCAAWDDSLNGPVFGPGTKVTVLGGSEGKSSGSGSESKSTGGSQVQLQESGPGLVKPSETLSLTCSVSGASIRNYYWSWIRQTAGKGLEWLGHIYSTGNIHYNPSLKSRVTMSVDTSNNQFSLKLRSVTAADTAVYYCARDNGAALFDYWGQGTLVTVSSGGGGSEVQLVESGGGLVQAGGSLRLSCAASGRPFSNYGMGWFRQAPGKKREFVAGISWSGGSTDYADSVKGRFTISRDNAKNTVYLQMNSLKPEDTAVYYCAAVFSGAETAYYPSDDYDYWGQGTQVTVSSAAAEPEA ?
~0.0013 nM

What Cytotox EC50 (nM) Donor 104 value was documented for this binder, scFv-VHH bispecific molecule JL3 x 5D3 (scFv (VL-L-VH)-L-VHH with C-tag) (bispecific antibody) QSVLTQPPSASGTPGQRVTISCSGSSSNIGSNIVNWYQQFPGTAPKLLLYSDNQRPSGVPDRFSGSKSGTSASLAISGLQSEDEADYYCAAWDDSLNGPVFGTGTKVTVLGGSEGKSSGSGSESKSTGGSQVQLQESGPGLVKPSETLSLTCSVSGGSIRNYYWSWIRQSAGKELEWFGHIFSTGHINYDSSLKSRVTMSVDTSNNQFSLKLRSVTAADTAVYYCARDNGAALFDFWGQGTLVTVSSGGGGSEVQLVESGGGLVQAGGSLRLSCAASGRPFSNYAMGWFRQAPGKEREFVTVISWSGGSTYYADSVKGRFTISRDNAKNTVYLQMNSLKPEDTAVYYCAAQFSGASTVVAGTALDYDYWGQGTRVTVSSAAAEPEA ?
~0.0013 nM

What Cytotox EC50 (nM) Donor 104 value was documented for this binder, scFv-VHH bispecific molecule JL1 x 5D3 (scFv (VL-L-VH)-L-VHH with C-tag) (bispecific antibody) DIVMTQSPLSLPVTPGEPASISCKSSQSLLFSNGYKFLDWYLQRPGQSPQLLIYLGSYRASGVPDRFSGSGSGTDFTLKISRVEAEDVGLYYCMQALQTPPTFGGGTKVEIKGGSEGKSSGSGSESKSTGGSEVQLVESGGGLVQPGGSLKVSCEASGFTFSVSAIHWVRQASGKGLEWIGRIRSKGNSYATAYAASVKGRFTISRDDSKNTAYLQMDSLKTEDTAVYYCTRHNDKWNYYGLDVWGQGTTVTVSSGGGGSEVQLVESGGGLVQAGGSLRLSCAASGRPFSNYAMGWFRQAPGKEREFVTVISWSGGSTYYADSVKGRFTISRDNAKNTVYLQMNSLKPEDTAVYYCAAQFSGASTVVAGTALDYDYWGQGTRVTVSSAAAEPEA ?
~0.61 nM
